Entry source: ChEMBL document CHEMBL1149326

Biological target: Geranylgeranyl transferase type I (Homo sapiens, UniProt P49354+P53609)
Test: Inhibition binding constant Geranylgeranyl transferase type I
reportedProperty: IC50 (nM)
Only the number, expressed in nM, is required.

Dear colleague, I am looking for the recorded IC50 of the following compound: COC(=O)[C@H](CC(C)C)NC(=O)c1ccc(NC[C@@H](N)CS)cc1-c1cccc2ccccc12 54

---

Molecular target: Geranylgeranyl transferase type I (Homo sapiens, UniProt P49354+P53609)
Experiment: Inhibition binding constant against Geranylgeranyl transferase type I
reportedProperty: Ki (nM)
Enter your answer as a number in nM; do not include the unit.

Returns the measured Ki for the input compound. Input: CSCC[C@H](NC(=O)c1cc(NC[C@@H]2C[C@H](SC(=O)c3cccnc3)CN2)ccc1CCc1ccc(F)cc1)C(=O)OC(C)C 8

---

Each entry below carries its recorded pIC50.
Molecular target: Protein farnesyltransferase (Homo sapiens, UniProt P49354+P49356)
Experiment: Inhibitory concentration against farnesyltransferase was determined
Type: protein-complex assay
As a rule, pIC50 stands for the negative log10 of the concentration, concentration in M.

Which measured pIC50 value corresponds to CC(=O)N1CCC(=C2c3ccc(Cl)cc3CCc3cccnc32)CC1 ? 4.57

Look at this compound and give its reported pIC50. O=C(c1ccccc1OC(F)(F)F)N1CCN(Cc2cnc[nH]2)c2ccc(-c3ccncc3)cc2C1 7.62

Return reported pIC50; argument: N#Cc1ccc2cc1Oc1ccc3cccc(c3c1)N1CCN(CC1=O)Cc1cncn1C2 9.70

Fill in the blank: the reported pIC50 of CC[C@@H](C)[C@@H](CO[C@@H](Cc1ccccc1)C(=O)N[C@@H](CCS(C)(=O)=O)C(=O)O)NC[C@@H](N)S is ____. 8.74
